Source of measurements: the supplement of paper PMC9170038

Tested on: MS2 coat protein
Assay: apparent KD of MS2 coat protein; designed switch direction (-1 OFF switch, 1 ON switch): -1; higher = weaker reporter binding
Conditions: input ligand: none
Class definitions on apparent KD of MS2 coat protein: low = under 20 nM, mid = from 20 nM up to 80 nM, high = 80 nM and over

Form field 'band' for GUCUGCACGCUGCGGUCCUACAUGAGGAUCACCCAUGUGGUCUGGUGGCGUGGGUCGCCGGACUUGGCUCGUCUUGA [salish99_S_TOV1_R5_045] (Eterna round: R97, puzzle: Sensor, turn-off variant 1)
low

Form field 'band' for UGCCUAUGAGGAUAUACAUUGAAUAAGAUUCAUGUAAAACUACAUGAGGAUCACCCAUGUAGAAGGCAUGGGCU [Mat - Exclusion 2 - JL Mod - D70] (Eterna round: R97, puzzle: Exclusion 2)
low

Form field 'band' for ACAUGAGGAUCACCCAUGUGGGUUCUCCAGCAUAAUAAGAGGUAGGAUAUGCAGUCGCCGAAGGAGCAGAAGGACCGCGUUUAU [Eternabot solution 50] (Eterna round: R96, puzzle: Exclusion NG 3)
mid

Form field 'band' for UCUCAGCCUAAGGAUAUGAGCCGAACCAAAAGUUCAGAAGGUAGGACAUGAGGAUCACCCAUGUGAGCCUACAC [Eternabot (Original) Solution 39] (Eterna round: R97, puzzle: Exclusion 6)
mid

Form field 'band' for AGGCCUCGAGGAUAUACAUGAGGAUCACCCAUGUCAUAAUAGAUUGUUAUGAGACAUCGUAGAAGGCGAUGGCC [Eternabot (L2) Solution 98] (Eterna round: R97, puzzle: Exclusion 3)
mid

Form field 'band' for ACGCAUUGCCUUUGGUAGUGCGUAACAUGAGGAUCACCCAUGUAGGAUAUGGUAGGCAAAGCUUACCAGAAGGACAUAAUAAUU [Mat - Exclusion NG 3 - Mod of JL - D3] (Eterna round: R96, puzzle: Exclusion NG 3)
mid

---

Measured apparent KD of MS2 coat protein values are reported for all entries that follow.
System: MS2 coat protein
Experiment: apparent KD of MS2 coat protein; designed switch direction (-1 OFF switch, 1 ON switch): 1; higher = weaker reporter binding
Conditions: Eterna round: R95; input ligand: microRNA oligo, concentration not stated
// note: answer is a bare numeric in nM

# monomerSequence, measuredOn, apparent KD of MS2 coat protein, nM
data = [
    ("AUAAAACAUGAGGAUCACCCAUGUCUACAAAGUCGAGGAUAUGGGCAAAUAAUAUAAGAACCAGAAGGCGAAUAAU [SS1 Teenbexe 1] (puzzle: Same State 1)", "MS2 coat protein", 565),
]

# query: apparent KD of MS2 coat protein of entry UUUAGUUGCGGGCAGGAUAUGUAUUAAUAUACAUGAGGAUCACCCAUGUGAGAUCGAAUAGAUCUACAGAAGGGCCAAUCGCGAC [Laonerce - 25] (puzzle: Same State 2)
133

# query: apparent KD of MS2 coat protein of entry CGGGUACAUGAGGAUCACCCAUGUAGAAGAGAUGCAGGAUAUGUGGGAAAAGGGAAUGUAACAGAAGGGCAAGGAG [JR_SS!_Sub017] (puzzle: Same State 1)
56.1

# query: apparent KD of MS2 coat protein of entry GCUCUACAUGAGGAUCACCCAUGUCCGAACGCGCGAGGAUAUGCAUGGGCGAAAGCUGGUGCAGAAGGCGUGGGAC [2theCorner] (puzzle: Same State 1)
202

# query: apparent KD of MS2 coat protein of entry CUCCCACGUGCACAGGAUAUGCCGGGAUGCACAUGAGGAUCACCCAUGUAAUCCUGAAAAUAAAAGCAGAAGGGUGAUCAUGGGU [Teestege] (puzzle: Same State 2)
11.6
